Values from PubChem BioAssay (EPA / NIEHS)

# TESTED_TARGET: Cellular tumor antigen p53 (Homo sapiens) (UniProt P04637)
# Sequence (P04637 whole entry, looked up): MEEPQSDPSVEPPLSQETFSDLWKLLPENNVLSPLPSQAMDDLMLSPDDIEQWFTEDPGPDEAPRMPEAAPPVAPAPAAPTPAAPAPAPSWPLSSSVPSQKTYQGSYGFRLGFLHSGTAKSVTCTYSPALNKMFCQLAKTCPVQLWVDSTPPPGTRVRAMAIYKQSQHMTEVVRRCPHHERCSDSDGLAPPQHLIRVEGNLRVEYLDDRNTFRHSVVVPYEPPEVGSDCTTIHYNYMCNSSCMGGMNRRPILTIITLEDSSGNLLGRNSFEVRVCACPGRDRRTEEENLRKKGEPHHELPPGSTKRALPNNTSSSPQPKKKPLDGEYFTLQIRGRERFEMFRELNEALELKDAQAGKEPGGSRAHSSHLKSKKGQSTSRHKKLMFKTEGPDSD
# ASSAY_INFO: TOX21_p53_BLA_p4_ratio: Tox21 HCT-116 p53 Agonism Beta-lactamase Assay, Ratio, Phase 4 (AID 2283601)
Results filed as inconclusive are left out. Activity calls are given as the source filed them. How the source made its calls: active means hit-call score of the fitted dose curve at least 0.9, where 1 is the maximum; inconclusive means response in the unintended direction; inactive means score below 0.9.
The categories you may choose from are active, inactive

Here are 6 molecules together with their reported answers.
CC1(C)C(C=C(Cl)Cl)C1C(=O)OC(C#N)c1ccc(F)c(Oc2ccccc2)c1 (stereo not drawn) | inactive
CC(C)(C)C(O)C(Oc1ccc(Cl)cc1)n1cncn1 (stereo not drawn) | inactive
O=[N+]([O-])c1c(Cl)c(Cl)c(Cl)c(Cl)c1Cl | inactive
OCCOc1ccccc1 | inactive
CCc1ccc(C(=O)NN(C(=O)c2cc(C)cc(C)c2)C(C)(C)C)cc1 | inactive
COP(=S)(OC)Oc1ccc(SC)c(C)c1 | inactive

Turning now to a further molecule:
### Prompt Which result was noted for this molecule in the test: COc1nn(CSP(=S)(OC)OC)c(=O)s1
### Response inactive
